Reported pIC50 values for a set of molecules
Target: Phosphatidylinositol 4,5-bisphosphate 3-kinase catalytic subunit alpha isoform (Homo sapiens)
Sequence (P42336 whole entry, canonical isoform): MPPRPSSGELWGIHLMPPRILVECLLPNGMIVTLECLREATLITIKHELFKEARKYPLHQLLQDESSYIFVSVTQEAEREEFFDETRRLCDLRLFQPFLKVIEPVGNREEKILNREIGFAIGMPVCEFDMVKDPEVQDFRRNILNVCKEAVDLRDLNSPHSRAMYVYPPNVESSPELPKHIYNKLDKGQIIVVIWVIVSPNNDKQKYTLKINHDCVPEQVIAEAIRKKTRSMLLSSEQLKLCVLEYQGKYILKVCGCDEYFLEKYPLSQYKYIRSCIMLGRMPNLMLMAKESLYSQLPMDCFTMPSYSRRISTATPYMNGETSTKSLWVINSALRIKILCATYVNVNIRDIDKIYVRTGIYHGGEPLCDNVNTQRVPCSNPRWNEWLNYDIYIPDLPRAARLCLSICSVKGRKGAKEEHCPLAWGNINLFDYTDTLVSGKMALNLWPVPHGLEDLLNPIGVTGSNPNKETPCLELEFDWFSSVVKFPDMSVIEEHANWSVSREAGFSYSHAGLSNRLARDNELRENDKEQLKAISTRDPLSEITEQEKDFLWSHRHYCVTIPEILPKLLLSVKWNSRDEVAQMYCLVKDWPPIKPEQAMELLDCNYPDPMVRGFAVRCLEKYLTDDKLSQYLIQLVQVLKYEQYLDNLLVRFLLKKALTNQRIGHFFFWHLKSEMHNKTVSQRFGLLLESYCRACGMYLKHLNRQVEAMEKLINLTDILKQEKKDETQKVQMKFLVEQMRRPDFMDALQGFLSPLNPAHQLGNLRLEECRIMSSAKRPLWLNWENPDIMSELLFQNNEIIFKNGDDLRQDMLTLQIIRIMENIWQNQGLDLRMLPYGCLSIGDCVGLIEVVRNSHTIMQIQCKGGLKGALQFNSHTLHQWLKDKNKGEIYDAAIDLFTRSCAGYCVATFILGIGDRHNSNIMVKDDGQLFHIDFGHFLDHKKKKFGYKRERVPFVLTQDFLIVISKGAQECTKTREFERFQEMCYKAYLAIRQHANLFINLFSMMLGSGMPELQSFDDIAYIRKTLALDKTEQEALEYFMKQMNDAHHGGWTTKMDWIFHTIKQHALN
Assay: Inhibition of recombinant human PI3Kalpha using PIP2 as substrate incubated for 1 hr by kinase-glo assay
pIC50: −log10 of the molar value.

| Record Smiles | pIC50 |
| --- | --- |
| COc1ncc(-c2cc(OCCCCN(C)c3ncc(C(=O)NO)cn3)c3ncnc(C)c3c2)cc1F | 7.32 |
| COc1ncc(-c2cc(OCCN(c3ncc(C(=O)NO)cn3)C(C)C)c3ncnc(C)c3c2)cc1F | 7.37 |
| COc1ncc(-c2cc(OCCN(C)c3ncc(C(=O)NO)cn3)c3ncnc(C)c3c2)cc1F | 7.14 |
| COc1ncc(-c2cc(OCCCCC(=O)NO)c3ncnc(C)c3c2)cc1NS(=O)(=O)c1ccc(F)cc1F | 9.22 |
| COc1ncc(-c2cc(OCCCN(C)c3ncc(C(=O)NO)cn3)c3ncnc(C)c3c2)cc1F | 7.03 |

====

Biological target: Protein deacetylase HDAC6 (Homo sapiens, UniProt Q9UBN7)
Sequence (Q9UBN7 whole entry): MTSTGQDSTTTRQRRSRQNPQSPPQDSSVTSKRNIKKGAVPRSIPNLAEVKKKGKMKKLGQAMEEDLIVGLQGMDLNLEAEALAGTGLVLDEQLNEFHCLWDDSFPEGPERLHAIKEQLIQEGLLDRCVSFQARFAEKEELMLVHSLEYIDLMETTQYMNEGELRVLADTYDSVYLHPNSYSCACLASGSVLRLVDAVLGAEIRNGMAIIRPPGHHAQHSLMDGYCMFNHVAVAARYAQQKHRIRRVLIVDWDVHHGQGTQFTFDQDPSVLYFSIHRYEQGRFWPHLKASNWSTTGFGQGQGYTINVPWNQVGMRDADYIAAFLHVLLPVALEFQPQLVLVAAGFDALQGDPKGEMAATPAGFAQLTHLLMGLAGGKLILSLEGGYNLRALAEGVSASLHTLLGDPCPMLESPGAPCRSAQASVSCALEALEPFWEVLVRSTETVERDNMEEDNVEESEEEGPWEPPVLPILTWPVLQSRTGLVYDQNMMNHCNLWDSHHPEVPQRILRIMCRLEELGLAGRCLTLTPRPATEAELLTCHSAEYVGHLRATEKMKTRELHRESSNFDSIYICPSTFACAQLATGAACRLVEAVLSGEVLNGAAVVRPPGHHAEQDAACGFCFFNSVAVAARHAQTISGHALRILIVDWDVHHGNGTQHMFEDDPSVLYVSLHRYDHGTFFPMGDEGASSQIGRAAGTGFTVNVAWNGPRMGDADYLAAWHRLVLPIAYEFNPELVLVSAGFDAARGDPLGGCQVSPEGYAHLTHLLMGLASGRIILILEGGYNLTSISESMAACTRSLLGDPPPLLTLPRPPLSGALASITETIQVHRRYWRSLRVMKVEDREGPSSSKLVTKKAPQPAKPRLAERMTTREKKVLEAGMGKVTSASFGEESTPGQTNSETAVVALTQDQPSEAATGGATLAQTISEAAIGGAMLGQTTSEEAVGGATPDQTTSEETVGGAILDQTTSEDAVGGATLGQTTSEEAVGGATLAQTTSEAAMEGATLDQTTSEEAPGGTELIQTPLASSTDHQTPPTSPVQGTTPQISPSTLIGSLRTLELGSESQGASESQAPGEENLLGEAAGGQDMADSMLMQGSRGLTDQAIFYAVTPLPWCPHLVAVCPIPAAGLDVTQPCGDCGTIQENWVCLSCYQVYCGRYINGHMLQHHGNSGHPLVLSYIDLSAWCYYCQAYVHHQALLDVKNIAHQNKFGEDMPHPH
Measured Property: IC50 (nM)

| Record Smiles | Observed |
| --- | --- |
| COc1ccc(-c2cc(OCCN(C)c3ncc(C(=O)NO)cn3)c3ncnc(C)c3c2)cn1 | 17 |

====

Target: PI3-kinase p110-delta/p85-alpha (Homo sapiens, UniProt O00329)
Sequence (P27986 whole entry): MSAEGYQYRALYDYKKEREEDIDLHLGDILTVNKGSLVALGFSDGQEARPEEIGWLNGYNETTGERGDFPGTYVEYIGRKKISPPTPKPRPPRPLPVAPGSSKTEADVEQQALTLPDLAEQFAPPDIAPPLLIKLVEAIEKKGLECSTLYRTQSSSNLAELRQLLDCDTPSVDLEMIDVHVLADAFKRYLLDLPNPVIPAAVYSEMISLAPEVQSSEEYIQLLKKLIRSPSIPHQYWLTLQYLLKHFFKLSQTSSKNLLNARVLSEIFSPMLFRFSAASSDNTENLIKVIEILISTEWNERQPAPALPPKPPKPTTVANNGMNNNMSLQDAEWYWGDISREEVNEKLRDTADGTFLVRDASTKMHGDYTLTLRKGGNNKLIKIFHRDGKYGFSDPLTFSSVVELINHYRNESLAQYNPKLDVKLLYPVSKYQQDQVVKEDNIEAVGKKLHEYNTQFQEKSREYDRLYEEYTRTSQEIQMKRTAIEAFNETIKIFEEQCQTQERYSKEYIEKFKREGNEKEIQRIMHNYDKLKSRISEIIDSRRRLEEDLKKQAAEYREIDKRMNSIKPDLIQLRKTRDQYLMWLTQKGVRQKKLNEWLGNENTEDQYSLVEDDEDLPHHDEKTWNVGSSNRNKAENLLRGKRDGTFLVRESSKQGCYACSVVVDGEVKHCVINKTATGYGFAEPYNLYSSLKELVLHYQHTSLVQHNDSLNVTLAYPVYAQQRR
Sequence (O00329 whole entry): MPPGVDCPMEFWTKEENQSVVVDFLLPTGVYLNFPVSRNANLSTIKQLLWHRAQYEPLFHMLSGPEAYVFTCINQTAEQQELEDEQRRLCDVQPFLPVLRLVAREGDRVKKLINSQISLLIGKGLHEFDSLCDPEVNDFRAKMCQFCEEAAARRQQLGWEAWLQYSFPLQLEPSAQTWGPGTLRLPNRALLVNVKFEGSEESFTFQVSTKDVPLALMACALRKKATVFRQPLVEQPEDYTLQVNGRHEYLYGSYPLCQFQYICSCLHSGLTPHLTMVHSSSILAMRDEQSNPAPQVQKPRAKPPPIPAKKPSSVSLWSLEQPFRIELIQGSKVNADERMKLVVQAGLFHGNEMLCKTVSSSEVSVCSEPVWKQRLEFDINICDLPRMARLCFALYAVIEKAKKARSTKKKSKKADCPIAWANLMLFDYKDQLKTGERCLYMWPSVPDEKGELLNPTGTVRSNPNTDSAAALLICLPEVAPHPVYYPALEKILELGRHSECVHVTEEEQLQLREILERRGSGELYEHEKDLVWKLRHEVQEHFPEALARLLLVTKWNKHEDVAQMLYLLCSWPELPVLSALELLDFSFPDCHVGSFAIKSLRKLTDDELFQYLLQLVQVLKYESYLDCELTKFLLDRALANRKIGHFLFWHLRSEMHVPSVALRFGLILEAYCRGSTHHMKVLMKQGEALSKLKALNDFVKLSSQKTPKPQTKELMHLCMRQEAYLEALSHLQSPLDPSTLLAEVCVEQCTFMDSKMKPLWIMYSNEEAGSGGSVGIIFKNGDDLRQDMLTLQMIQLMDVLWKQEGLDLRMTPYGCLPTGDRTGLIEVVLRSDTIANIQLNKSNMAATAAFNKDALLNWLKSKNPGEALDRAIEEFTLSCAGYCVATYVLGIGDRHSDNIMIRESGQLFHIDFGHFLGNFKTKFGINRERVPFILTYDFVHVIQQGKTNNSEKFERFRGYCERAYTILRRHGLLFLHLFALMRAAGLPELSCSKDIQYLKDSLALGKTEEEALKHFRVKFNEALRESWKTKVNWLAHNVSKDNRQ
Experiment: Inhibition of recombinant human His-tagged PIK3CD/PIK3R1 expressed in baculovirus expression system using PIP2 as substrate incubated for 1 hr by ADP-glo assay
pIC50: −log10 of the molar value.
Measured Property: pIC50

| Record Smiles | Observed |
| --- | --- |
| COc1ccc(-c2cc(OCCN(C)c3ncc(C(=O)NO)cn3)c3ncnc(C)c3c2)cn1 | 7.54 |

====

Tested on: HCT-116
Experiment: Induction of apoptosis in human HCT116 cells assessed as live cells at 500 nM after 48 hrs by Annexin V-FITC/propidium iodide staining-based flow cytometric analysis (reference value: 89.6%)
Assay type: functional
Listed here are compounds together with their documented Activity.

| Record Smiles | Activity / % |
| --- | --- |
| COc1ccc(-c2cc(OCCN(C)c3ncc(C(=O)NO)cn3)c3ncnc(C)c3c2)cn1 | 43.8 |
| Nc1cc(C(F)(F)F)c(-c2cc(N3CCOCC3)nc(N3CCOCC3)n2)cn1 | 84.7 |
| COc1ncc(-c2cc(OCCCCCCC(=O)NO)c3ncnc(C)c3c2)cc1F | 67.9 |
| O=C(CCCCCCC(=O)Nc1ccccc1)NO | 87.7 |

====

Assay: Drug level in tumor of human HGC27 cells xenografted in BALB/c mouse at 100 mg/kg, po measured 0.5 hrs post last dose
Type: ADME, organism-based, Neoplasm
Settings: read-out: Drug uptake
Measured Property: concentration at 0.5 h (ng/g)

| Record Smiles | Unit Annotation | Observed |
| --- | --- | --- |
| COc1ncc(-c2cc(OCCCCCCC(=O)NO)c3ncnc(C)c3c2)cc1F | ng/g | 36.6 |

====

Assay: Drug level in tumor of human HGC27 cells xenografted in BALB/c mouse at 200 mg/kg, po measured 0.5 hrs post last dose
Assay type: ADME, organism-based, Neoplasm
Conditions: read-out: Drug uptake

| Record Smiles | concentration at 0.5 h / ng/g |
| --- | --- |
| COc1ncc(-c2cc(OCCCCCCC(=O)NO)c3ncnc(C)c3c2)cc1F | 105 |

====

Assay: Selectivity index, ratio of IC50 for human LO2 cells to IC50 for human HCT116 cells
Assay type: toxicity
Conditions: LO2 cells and HCT116 cells, read-out: Ratio IC50

| Record Smiles | selectivity ratio |
| --- | --- |
| COc1ccc(-c2cc(OCCN(C)c3ncc(C(=O)NO)cn3)c3ncnc(C)c3c2)cn1 | 1430 |

====

Assay: Apparent volume of distribution in ICR mouse at 3 mg/kg, iv measured after 0.033 to 24 hrs by LC/MS/MS analysis
Assay type: ADME, organism-based
Settings: in vivo, read-out: Vz

| Record Smiles | Vd, L/kg |
| --- | --- |
| COc1ncc(-c2cc(OCCCCCCC(=O)NO)c3ncnc(C)c3c2)cc1F | 2.57 |
| COc1ccc(-c2cc(OCCN(C)c3ncc(C(=O)NO)cn3)c3ncnc(C)c3c2)cn1 | 50 |

====

Tested on: Huh-7
Experiment: Antiproliferative activity against human HuH7 cells after 96 hrs by MTT assay
Type: functional, cell-based
Conditions: Huh-7, 96 h

| Molecule | Unit Annotation | IC50 |
| --- | --- | --- |
| COc1ccc(-c2nc(N3CCOCC3)c3sc(CN(C)c4ncc(C(=O)NO)cn4)cc3n2)cn1 [FIMEPINOSTAT] | nM | 560 |
| COc1ncc(-c2cc(OCCCCCCC(=O)NO)c3ncnc(C)c3c2)cc1F | nM | 2500 |
| COc1ccc(-c2cc(OCCN(C)c3ncc(C(=O)NO)cn3)c3ncnc(C)c3c2)cn1 | nM | 240 |
| Nc1cc(C(F)(F)F)c(-c2cc(N3CCOCC3)nc(N3CCOCC3)n2)cn1 [BUPARLISIB] | nM | 2000 |

====

Target: UniProt:Q13547
Sequence (Q13547 whole entry): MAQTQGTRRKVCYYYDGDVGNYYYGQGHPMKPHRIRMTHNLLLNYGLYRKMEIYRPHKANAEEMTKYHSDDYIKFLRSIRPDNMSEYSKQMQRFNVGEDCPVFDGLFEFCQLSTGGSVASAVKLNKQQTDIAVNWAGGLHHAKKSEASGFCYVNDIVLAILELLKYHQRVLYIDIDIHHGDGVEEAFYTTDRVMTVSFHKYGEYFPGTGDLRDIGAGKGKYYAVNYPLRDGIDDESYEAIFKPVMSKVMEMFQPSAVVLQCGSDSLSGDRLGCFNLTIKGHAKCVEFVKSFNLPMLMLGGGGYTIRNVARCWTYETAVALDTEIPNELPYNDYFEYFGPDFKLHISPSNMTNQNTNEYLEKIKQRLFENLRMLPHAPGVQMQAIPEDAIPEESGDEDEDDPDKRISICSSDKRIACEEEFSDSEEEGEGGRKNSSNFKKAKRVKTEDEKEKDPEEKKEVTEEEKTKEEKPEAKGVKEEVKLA
Experiment: Inhibition of recombinant C-terminal His/FLAG-tagged HDAC1 (unknown origin) expressed in baculovirus infected Sf9 insect cells using Ac-peptide as substrate preincubated for 15 mins followed by substrate addition and measured after 1 hr
pIC50: −log10 of the molar value.
Give criterion met when the value for pIC50 is at least 8. Give criterion not met when it is less.

| Record Smiles | Class Name |
| --- | --- |
| COc1ccc(-c2cc(OCCCCCCCCC(=O)NO)c3ncnc(C)c3c2)cn1 | criterion met |
| CCN(CCOc1cc(-c2ccc(OC)nc2)cc2c(C)ncnc12)c1ncc(C(=O)NO)cn1 | criterion met |
| COc1ncc(-c2cc(OCCN(C)c3ncc(C(=O)NO)cn3)c3ncnc(C)c3c2)cc1NS(=O)(=O)c1ccc(F)cc1F | criterion met |
| COc1ncc(-c2cc(OCCCCCCC(=O)NO)c3ncnc(C)c3c2)cc1NS(C)(=O)=O | criterion met |
| COc1ccc(-c2cc(OCCCCC(=O)NO)c3ncnc(C)c3c2)cn1 | criterion not met |
| COc1ccc(-c2cc(OCCCN(C)c3ncc(C(=O)NO)cn3)c3ncnc(C)c3c2)cn1 | criterion met |
| COc1ncc(-c2cc(OCCCNc3ncc(C(=O)NO)cn3)c3ncnc(C)c3c2)cc1F | criterion met |
| COc1ccc(-c2cc(OCCCCCCC(=O)NO)c3ncnc(C)c3c2)cn1 | criterion met |
| COc1ccc(-c2cc(OCCCCCC(=O)NO)c3ncnc(C)c3c2)cn1 | criterion not met |
| COc1ncc(-c2cc(OCCCCCCCCC(=O)NO)c3ncnc(C)c3c2)cc1F | criterion met |
| COc1ncc(-c2cc(OCCCCCC(=O)NO)c3ncnc(C)c3c2)cc1F | criterion not met |
| COc1ncc(-c2cc(OCCCCCC(=O)NO)c3ncnc(C)c3c2)cc1NS(=O)(=O)c1ccc(F)cc1F | criterion not met |
| COc1ncc(-c2cc(OCCCCCCCCC(=O)NO)c3ncnc(C)c3c2)cc1NS(C)(=O)=O | criterion met |
| COc1ncc(-c2cc(OCCCCCCCC(=O)NO)c3ncnc(C)c3c2)cc1F | criterion met |
| COc1ccc(-c2cc(OCCCCCCCC(=O)NO)c3ncnc(C)c3c2)cn1 | criterion met |
| COc1ncc(-c2cc(OCCNc3ncc(C(=O)NO)cn3)c3ncnc(C)c3c2)cc1F | criterion met |
| COc1ncc(-c2cc(OCCN(c3ncc(C(=O)NO)cn3)C(C)C)c3ncnc(C)c3c2)cc1F | criterion met |
| COc1ccc(-c2cc(OCC(=O)NO)c3ncnc(C)c3c2)cn1 | criterion not met |
| COc1ncc(-c2cc(OCCCCC(=O)NO)c3ncnc(C)c3c2)cc1NS(=O)(=O)c1ccc(F)cc1F | criterion not met |
| COc1ncc(-c2cc(OCCCC(=O)NO)c3ncnc(C)c3c2)cc1NS(=O)(=O)c1ccc(F)cc1F | criterion not met |
| CCN(CCOc1cc(-c2cnc(OC)c(F)c2)cc2c(C)ncnc12)c1ncc(C(=O)NO)cn1 | criterion met |
| COc1ccc(-c2cc(OCCN(C)c3ncc(C(=O)NO)cn3)c3ncnc(C)c3c2)cn1 | criterion met |
| COc1ncc(-c2cc(OCCCN(C)c3ncc(C(=O)NO)cn3)c3ncnc(C)c3c2)cc1F | criterion met |
| COc1ncc(-c2cc(OCCCCCC(=O)NO)c3ncnc(C)c3c2)cc1NS(C)(=O)=O | criterion not met |
| COc1ncc(-c2cc(OCCCCN(C)c3ncc(C(=O)NO)cn3)c3ncnc(C)c3c2)cc1F | criterion met |
| COc1ncc(-c2cc(OCCCCCCCC(=O)NO)c3ncnc(C)c3c2)cc1NS(=O)(=O)c1ccc(F)cc1F | criterion met |
| COc1ccc(-c2cc(OCCN(c3ncc(C(=O)NO)cn3)C(C)C)c3ncnc(C)c3c2)cn1 | criterion met |
| COc1ccc(-c2cc(OCCCC(=O)NO)c3ncnc(C)c3c2)cn1 | criterion not met |
| COc1ncc(-c2cc(OCCN(C)c3ncc(C(=O)NO)cn3)c3ncnc(C)c3c2)cc1F | criterion met |
| COc1ncc(-c2cc(OCCCCCCCC(=O)NO)c3ncnc(C)c3c2)cc1NS(C)(=O)=O | criterion met |
